Molecular target: Major prion protein
Experiment: Half maximal inhibition of Prion protein PrPsc formation was assayed in ScN2a cells
Parameter: EC50 (µM)
Kindly answer with a numeric value in µM, unit omitted.

Here are 4 compounds together with their reported answers.
Request the reported EC50 associated with `CN(C)CCCN1c2ccccc2Sc2ccc(Cl)cc21`
2

Request the reported EC50 associated with CCN(CC)CCCC(C)Nc1ccnc2cc(Cl)ccc12 (stereo not drawn)
4

Request the reported EC50 associated with `CN(C)CCCN1c2ccccc2Sc2ccccc21`
5

Request the reported EC50 associated with CC(CN1c2ccccc2Sc2ccccc21)N(C)C (stereo not drawn)
8

Now turn to the next compound.
Request the reported EC50 associated with `CC(=O)c1ccc2c(c1)N(CCCN(C)C)c1ccccc1S2`
5

###

Biological target: Major prion protein
Assay: Half maximal inhibition of Prion protein PrPsc formation was assayed in ScN2a cells
Type: cell-based
pEC50: −log10 of the molar value.
# pEC50 annotations

Here are 2 compounds together with their reported answers.
# returns recorded pEC50 (system: Major prion protein) for `O=C(CCCN1CCC(O)(c2ccc(Cl)cc2)CC1)c1ccc(F)cc1`
< 5.00

# returns recorded pEC50 (system: Major prion protein) for NC(=O)N1c2ccccc2C=Cc2ccccc21 [CARBAMAZEPINE]
< 5.00

Now turn to the next compound.
# returns recorded pEC50 (system: Major prion protein) for `c1ccc2nc3ccccc3nc2c1`
< 5.00
